experiment: PET/CT biodistribution (%ID/l, SUV); assay type: in vivo, human; conditions: human, liver, intravenous, total radioactivity, average of all patients, first scan (8 ± 2 min p.i.); read-out: mean SUV in the liver, first image
measurement kind: SUV (SUV)
One number for each entry, in SUV.

Requested field: SUV. Item: N=C(N)NCCC[C@@H]1NC(=O)[C@H](CCCCNC(=O)CCC(C(=O)O)N2CCN(CC(=O)O)CCN(CC(=O)O)CC2)NC(=O)[C@@H](Cc2ccccc2)NC(=O)[C@H](CC(=O)O)NC(=O)CNC1=O (stereo partly shown) [[^68Ga]NODAGA-RGD, metal not drawn]
3.8
